Values were extracted from patent US8802664B2.

Target: human H4 receptor (Homo sapiens, UniProt Q9H3N8)
Construct: expressed in transfected cells
Sequence (Q9H3N8 whole entry): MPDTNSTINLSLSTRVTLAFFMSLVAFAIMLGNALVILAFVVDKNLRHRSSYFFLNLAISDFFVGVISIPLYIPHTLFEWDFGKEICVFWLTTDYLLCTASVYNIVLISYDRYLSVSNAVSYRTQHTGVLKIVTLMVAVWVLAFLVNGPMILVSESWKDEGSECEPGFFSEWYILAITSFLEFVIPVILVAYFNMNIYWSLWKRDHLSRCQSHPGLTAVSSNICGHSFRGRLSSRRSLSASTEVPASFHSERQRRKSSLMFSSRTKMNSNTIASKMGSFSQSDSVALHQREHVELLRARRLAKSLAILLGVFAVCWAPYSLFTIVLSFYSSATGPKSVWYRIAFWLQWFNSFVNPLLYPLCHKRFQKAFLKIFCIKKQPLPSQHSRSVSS
Assay: [3H]Histamine binding on membranes of CHO cells stably expressing human H4 receptor
Experimental: CHO cells stably expressing human H4 receptor were grown until sub-confluence and centrifuged at 300 g 15 minutes at 4° C. Pellets were resuspended in buffer I Tris-HCl 50 mM, MgCl2 10 mM, NaCl 140 mM, pH=7.4 supplemented by a 1/50 dilution of a mix of protease inhibitors. […] Protein content is measured by the Bradford method. […] The filter-bound radioactivity was measured in a liquid scintillation counter Microbeta TRILUX® with 50 μl of scintillation fluid. […]
measure: Ki or IC50 activity class

Lookup: Look at this compound and give its reported Ki or IC50 activity class. CN1CCC(NC(c2cccc(Oc3ccccc3)c2)c2nc3ccccc3[nH]2)CC1 (stereo not drawn)
Found: < 300 nM

Lookup: Look at this compound and give its reported Ki or IC50 activity class. CN1CCC(OC(c2cccc(OCCCCN3CCOCC3)c2)c2nc3ccccc3s2)CC1 (stereo not drawn)
Found: < 1000 nM

Lookup: Look at this compound and give its reported Ki or IC50 activity class. CCCCOc1cccc(C(NC2CCN(C)CC2)c2nc3ccccc3[nH]2)c1 (stereo not drawn)
Found: < 30 nM

* * *

Reported values of Ki or IC50 activity class for individual entries
target: human H4 receptor (Homo sapiens); construct: expressed in transfected cells; test: [3H]Histamine binding on membranes of CHO cells stably expressing human H4 receptor

# count of solved cases: 3
Lookup: Look at this molecule and give its reported Ki or IC50 activity class. CN1CCC(NC(c2cccc(OCc3cccc(F)c3F)c2)c2nc3ccccc3[nH]2)CC1 (stereo not shown) [Example 162]
Found: < 30 nM

Lookup: Look at this molecule and give its reported Ki or IC50 activity class. CN1CCC(OC(c2nc3cccc(F)c3[nH]2)c2cc(OC(F)(F)F)ccc2F)CC1 (stereo not shown) [Example 529]
Found: < 300 nM

Lookup: Look at this molecule and give its reported Ki or IC50 activity class. C=Cc1cccc(C(OC2CCN(C)CC2)c2nc3ccccc3[nH]2)c1 (stereo not shown) [Example 245]
Found: < 300 nM

Next:
Lookup: Look at this molecule and give its reported Ki or IC50 activity class. CN1CCC(OC(c2cccc(CCCCCNC(=N)NC(=O)OC(C)(C)C)c2)c2nc3ccccc3[nH]2)CC1 (stereo not shown) [Example 335]
Found: < 300 nM

Lookup: Look at this molecule and give its reported Ki or IC50 activity class. CN1CCC(OC(c2nc3ccccc3[nH]2)c2ccc(C(F)(F)F)cc2F)CC1 (stereo not shown) [Example 540]
Found: < 300 nM

Lookup: Look at this molecule and give its reported Ki or IC50 activity class. CN1CCC(OC(c2cccc(N=[N+]=[N-])c2)c2nc3ccccc3[nH]2)CC1 (stereo not shown) [Example 231]
Found: < 300 nM

Lookup: Look at this molecule and give its reported Ki or IC50 activity class. CN1CCC(OC(c2cccc(SCCCCO)c2)c2nc3ccccc3[nH]2)CC1 (stereo not shown) [Example 248]
Found: < 300 nM

Lookup: Look at this molecule and give its reported Ki or IC50 activity class. CCc1cccc(C(OC2CCN(C)CC2)c2nc3ccccc3[nH]2)c1O (stereo not shown) [Example 616]
Found: < 30 nM

* * *

Where a name gives a salt, the structure may show the parent alone.
measure: melting point (°C)
API: value field is a number in °C; no unit string.

Lookup: Look at this compound and give its reported melting point. CN1CCC(OC(c2cccc(N3CCCC3CO)c2)c2nc3ccccc3s2)CC1 (stereo not shown) (as salt: oxalate) [Example 324]
Found: 99

Lookup: Look at this compound and give its reported melting point. C=CCCOc1cccc(C(NC2CCN(C)CC2)c2nc3ccccc3[nH]2)c1 (stereo not shown)
Found: 71

Lookup: Look at this compound and give its reported melting point. CC(=O)c1ccc(-c2cccc(C(OC3CCN(C)CC3)c3nc4ccccc4[nH]3)c2)cc1 (stereo not shown) (as salt: oxalate)
Found: 115

Lookup: Look at this compound and give its reported melting point. CC(=O)CCCOc1cccc(C(OC2CCN(C)CC2)c2nc3ccccc3s2)c1 (stereo not shown) (as salt: oxalate)
Found: 72

Lookup: Look at this compound and give its reported melting point. CN1CCC(OC(c2cccc(OCCN)c2)c2nc3ccccc3[nH]2)CC1 (stereo not shown)
Found: 90

Next:
Lookup: Look at this compound and give its reported melting point. CN1CCC(OC(c2cccc(OCCO)c2)c2nc3ccccc3s2)CC1 (stereo not shown) (as salt: oxalate)
Found: 45

Lookup: Look at this compound and give its reported melting point. CN1CCC(OC(c2nc3ccccc3[nH]2)c2ccc3c(c2O)CCCC3)CC1 (stereo not shown)
Found: 125

Lookup: Look at this compound and give its reported melting point. CN1CCC(OC(c2ccccc2)c2nc3cc(Cl)c(Cl)cc3[nH]2)CC1 (stereo not shown)
Found: 221

Lookup: Look at this compound and give its reported melting point. COc1ccc(F)c(C(OC2CCN(C)CC2)c2nc3ccccc3[nH]2)c1F (stereo not shown)
Found: 185

Lookup: Look at this compound and give its reported melting point. CN1CCC(OC(c2nc3ccccc3s2)c2ccccc2Cl)CC1 (stereo not shown) (as salt: oxalate)
Found: 163

* * *

Reported values of melting point for individual entries
Where a name gives a salt, the structure may show the parent alone.
API: value field is a number in °C; no unit string.

# count of solved cases: 10
Lookup: Look at this compound and give its reported melting point. CN1CCC(OC(c2cccc(N3CC(O)C3)c2)c2nc3ccccc3s2)CC1 (centres unmarked) (as salt: oxalate)
Found: 117

Lookup: Look at this compound and give its reported melting point. COc1ccc(C(OC2CCN(C)CC2)c2nc3ccccc3s2)cc1 (centres unmarked) (as salt: hydrochloride)
Found: 72

Lookup: Look at this compound and give its reported melting point. CN1CCC(OC(c2cccc(OCc3cccc(C(F)(F)F)c3)c2)c2nc3ccccc3s2)CC1 (centres unmarked) (as salt: oxalate)
Found: 80

Lookup: Look at this compound and give its reported melting point. CN1CCC(NC(c2cccc(Oc3ccccc3)c2)c2nc3ccccc3[nH]2)CC1 (centres unmarked) (as salt: oxalate)
Found: 144

Lookup: Look at this compound and give its reported melting point. CN1CCC(OC(c2ccccc2)c2nc3cccc(O)c3[nH]2)CC1 (centres unmarked)
Found: 170.5

Lookup: Look at this compound and give its reported melting point. CN1CCC(OC(c2cccc(SCc3ccccc3)c2)c2nc3ccccc3s2)CC1 (centres unmarked)
Found: 195

Lookup: Look at this compound and give its reported melting point. COc1cc(F)c(O)c(C(OC2CCN(C)CC2)c2nc3ccccc3[nH]2)c1 (centres unmarked)
Found: 132

Lookup: Look at this compound and give its reported melting point. CN1CCC(OC(c2ccc(OC(F)(F)F)cc2)c2nc3ccccc3s2)CC1 (centres unmarked) (as salt: oxalate)
Found: 155

Lookup: Look at this compound and give its reported melting point. CSc1ccccc1-c1cccc(C(OC2CCN(C)CC2)c2nc3ccccc3[nH]2)c1 (centres unmarked)
Found: 163

Lookup: Look at this compound and give its reported melting point. CN1CCC(OC(c2cccc(SCCCCCN)c2)c2nc3ccccc3s2)CC1 (centres unmarked) (as salt: oxalate)
Found: 201

Next:
Lookup: Look at this compound and give its reported melting point. CN1CCC(NC(c2cccc(OCCCCN)c2)c2nc3ccccc3s2)CC1 (centres unmarked)
Found: 67

Lookup: Look at this compound and give its reported melting point. CN1CCC(OC(c2cccc(OCCCCN3CCOCC3)c2)c2nc3ccccc3[nH]2)CC1 (centres unmarked) (as salt: oxalate)
Found: 85

Lookup: Look at this compound and give its reported melting point. CCOC(=O)c1cccc(C(OC2CCN(C)CC2)c2nc3ccccc3s2)c1 (centres unmarked) (as salt: oxalate)
Found: 104

Lookup: Look at this compound and give its reported melting point. CN1CCC(OC(c2nc3ccccc3[nH]2)c2ccccc2F)CC1 (centres unmarked)
Found: 181

Lookup: Look at this compound and give its reported melting point. CSc1cccc(C(NC2CCN(C)CC2)c2nc3ccccc3s2)c1 (centres unmarked) (as salt: oxalate)
Found: 85

Lookup: Look at this compound and give its reported melting point. COc1cc(F)cc(C(OC2CCN(C)CC2)c2nc3ccccc3[nH]2)c1O (centres unmarked)
Found: 108

Lookup: Look at this compound and give its reported melting point. CN1CCC(OC(c2nc3cc(F)ccc3[nH]2)c2cc(OC(F)(F)F)ccc2F)CC1 (centres unmarked) (as salt: oxalate)
Found: 70

Lookup: Look at this compound and give its reported melting point. CN1CCC(OC(c2cccc(OCCN3CCN(C(=O)OC(C)(C)C)CC3)c2)c2nc3ccccc3[nH]2)CC1 (centres unmarked) (as salt: oxalate)
Found: 92

Lookup: Look at this compound and give its reported melting point. CN1CCC(OC(c2cccc(N3CCC(O)C3)c2)c2nc3ccccc3s2)CC1 (centres unmarked) (as salt: oxalate) [Example 406]
Found: 103

Lookup: Look at this compound and give its reported melting point. CN1CCC(OC(c2nc3ccccc3[nH]2)c2cc(OCCCF)ccc2O)CC1 (centres unmarked)
Found: 114

Lookup: Look at this compound and give its reported melting point. CN1CCC(OC(c2nc3cc(F)ccc3[nH]2)c2cc(C#CCCCN)ccc2F)CC1 (centres unmarked)
Found: 90

Lookup: Look at this compound and give its reported melting point. CN1CCC(OC(c2cccc(C#CC3CNC3)c2)c2nc3ccccc3[nH]2)CC1 (centres unmarked)
Found: 131

Lookup: Look at this compound and give its reported melting point. CN1CCC(OC(c2cccc(-c3ccccc3F)c2)c2nc3ccccc3[nH]2)CC1 (centres unmarked)
Found: 90
